# Test system: SN12C renal
# procedure details: NCI tumour cell line growth inhibition, 48 h
Listing of recorded TGI by entry.
observation type: TGI

INSERT INTO results (molecule, assayed_target, observation_type, result) VALUES
  ('Clc1ccc(-c2nnc3sc4nc5ccccc5c-4nn23)c(Cl)c1', 'SN12C renal', 'TGI', '> 100 µM'),
  ('CCOC(=O)c1c(-c2ccc(O)c(OC)c2)c(C#N)c(=S)n(C2OC(CO)C(O)C(O)C2O)c1-c1ccccc1 (stereo unspecified)', 'SN12C renal', 'TGI', '> 100 µM'),
  ('Cc1cc(N[C@@H]2CCC[C@H](Nc3ccnc4cc(Cl)ccc34)C2)nc(N2CCCCCC2)n1', 'SN12C renal', 'TGI', '3.11 µM'),
  ('COc1cc(N=Nc2ccc(O)c3ncccc23)c2ncccc2c1', 'SN12C renal', 'TGI', '> 100 µM'),
  ('COC(=O)C1CCCC2(C1)OCCO2 (stereo unspecified)', 'SN12C renal', 'TGI', '> 100 µM'),
  ('O=C(O)CN1CCNCCN(CC(=O)O)CCN(CC(=O)O)CCNCC1', 'SN12C renal', 'TGI', '> 100 µM'),
  ('S=c1[nH]c(=S)c2cc3ccccc3nc2[nH]1', 'SN12C renal', 'TGI', '> 100 µM'),
  ('O=C1c2cc(-c3ccccc3)cnc2S(=O)(=O)N1c1ccc(Br)cc1', 'SN12C renal', 'TGI', '> 100 µM'),
  ('C=CCCCCC1CCC2CCC(CCCCC=C)N12 (stereo unspecified)', 'SN12C renal', 'TGI', '29.9 µM'),
  ('C=C1CC(C#N)(C#N)[C@H]2C3CCCC3C[C@@H]12 (stereo partly specified) (tested in a mixture with another compound)', 'SN12C renal', 'TGI', '30.5 µM'),
  ('N#C/C(=C\c1ccc2ccccc2c1)C(=O)c1ccccc1', 'SN12C renal', 'TGI', '> 87.2 µM');

* * *

# System: UACC-257 melanoma
# procedure details: NCI tumour cell line growth inhibition, 48 h
Listing of recorded TGI by entry.
observation type: TGI

INSERT INTO measurements (compound, assayed_target, result) VALUES
  ('Cc1cccc(C)c1NC(=O)C(Cc1c[nH]c2ccccc12)NC(=O)OCc1ccccc1 (stereo not given)', 'UACC-257 melanoma', '34 µM'),
  ('CCn1c(O)c(/C=N/NC(=O)C(C)c2ccc(CC(C)C)cc2)sc1=S (stereo not given)', 'UACC-257 melanoma', '> 74.9 µM'),
  ('C=C1C(=O)CC2C1CC(=O)/C(C)=C/CCC(C)(O)C2O (stereo not given)', 'UACC-257 melanoma', '12.6 µM'),
  ('CCCCCC#CCOC(=O)C(=[N+]=[N-])P(=O)(c1ccccc1)c1ccccc1', 'UACC-257 melanoma', '> 10 µM'),
  ('C/C(N=NC(=S)N1CC2CCC(CC2)C1)=C1\C=CC=CN1O', 'UACC-257 melanoma', '35.2 µM'),
  ('COC1=CC(=O)c2c(c(-c3nc(C)cs3)cn2C)C1=O', 'UACC-257 melanoma', '4.44 µM'),
  ('C[N+](C)([O-])CCOc1cc2c(c3ccccc13)-c1ccccc1C2=O', 'UACC-257 melanoma', '16.9 µM'),
  ('C/C(=N\N=C1/C(=O)OC(c2ccccc2)=C1C(=O)c1ccccc1)c1ccc([N+](=O)[O-])cc1', 'UACC-257 melanoma', '> 100 µM'),
  ('NS(=O)(=O)c1ccc(N=Nc2c(O)c(C(=O)O)cc3ccccc23)cc1', 'UACC-257 melanoma', '> 100 µM'),
  ('COc1ccc(-c2ccc(=O)oc2C#Cc2cc(OC)c(OC)c(OC)c2)cc1O', 'UACC-257 melanoma', '> 37.3 µM');
